Let's go through some recorded IC50 values for PDE5 (Sus scrofa) together.
Where a name gives a salt, the structure may show the parent alone.

1. COc1ccc(CNc2nnc(N3CCC4(CC3)CC(O)C4)c3ccc(C#N)cc23)cc1Cl.Cl [Example 9, Hydrochloride]	0.54 nM
2. COc1ccc(CNc2nnc(-c3cccnc3)c3ccc(C#N)cc23)cc1Cl [Example 1, Dihydrochloride]	0.78 nM

Data point: COc1ccc(CNc2nnc(N3CCC(F)(CO)CC3)c3ccc(C#N)cc23)cc1C.Cl [Example 88, Hydrochloride] ; IC50 = 0.89 nM

Data point: COc1ccc(CCNc2nnc(N3CCCC(CO)C3)c3ccc(C#N)cc23)cc1Cl (stereo not shown) [Production Example 5, Hydrochloride] ; IC50 = 0.23 nM
